residual activity values, listed per item
Target: Testis-specific serine/threonine-protein kinase 2 (Homo sapiens)
Sequence (whole entry): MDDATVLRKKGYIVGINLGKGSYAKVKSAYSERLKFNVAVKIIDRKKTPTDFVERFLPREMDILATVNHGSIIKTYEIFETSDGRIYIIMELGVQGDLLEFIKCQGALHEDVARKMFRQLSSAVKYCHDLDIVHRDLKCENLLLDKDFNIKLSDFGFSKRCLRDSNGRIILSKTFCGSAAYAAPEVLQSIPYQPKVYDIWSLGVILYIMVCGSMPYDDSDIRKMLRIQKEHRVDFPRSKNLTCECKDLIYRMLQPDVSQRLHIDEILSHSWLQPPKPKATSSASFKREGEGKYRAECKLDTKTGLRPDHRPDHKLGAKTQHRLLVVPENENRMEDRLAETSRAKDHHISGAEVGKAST
Conditions: at 1 µM
// note: answer is a bare numeric in %

Example compounds with recorded residual activity:
O=C(Nc1cccc(Nc2cc(Nc3cccc(C(F)(F)F)c3)ncn2)c1)C1CC1: 91
CCn1cnc2c(Nc3cccc(Cl)c3)nc(N[C@@H]3CCCC[C@@H]3N)nc21: 90
CCOC(=O)c1c(C)[nH]c(/C=C2\C(=O)Nc3ccccc32)c1C: 90
C[S+]([O-])c1ccc(-c2nc(-c3ccc(F)cc3)c(-c3ccncc3)[nH]2)cc1 (centres undefined): 94
COc1cc2ncnc(N3CCN(C(=O)Nc4ccc(Oc5ccccc5)cc4)CC3)c2cc1OC: 96

Supply measured residual activity of Oc1n[nH]c2nnc(-c3c(-c4ccccc4)nn4ccccc34)cc12 in your reply. 95

State its residual activity: COc1cc2ncnc(Nc3ccc(OCc4ccccc4)cc3)c2cc1OC 107

Consider the compound O=c1[nH]c2ccccc2n1C1CCN(Cc2ccc(-c3nc4cc5[nH]cnc5cc4nc3-c3ccccc3)cc2)CC1 . State its measured residual activity. 106

Look up and report measured residual activity for this entry: O=C1Nc2ccc3ncsc3c2/C1=C/c1c[nH]cn1 89
